Target: Human PD-1/PDCD1 Protein (PD-1) (human, UniProt Q15116 25-167, limits assumed)
Sequence (Q15116 25-167 limits assumed): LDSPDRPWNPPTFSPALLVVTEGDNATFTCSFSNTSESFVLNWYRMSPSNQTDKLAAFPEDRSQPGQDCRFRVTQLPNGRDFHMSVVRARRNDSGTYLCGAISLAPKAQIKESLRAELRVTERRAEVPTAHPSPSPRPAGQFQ
Experiment: SPR, Biacore 8K; PD-1 captured by anti-His antibody, antibody in flow
pKd: −log10 of the molar value.
measured-quantity: pKd

Please review the following examples before continuing.
binder | pKd
HM268-K9 (antibody, human IgG1, V domains shown, also called humanized HM268, VH ver.K / VL ver.9) VH: QVQLVQSGPEVKKPGASVKVVCKTSGYTFTSYYIQWLKQRPGQGLEWIGWIYFGDASTKYNEKFKGRVTMTADKSTSTAYMELRSLRSDDTAVYYCASYYGSYFDYWGQGTTVTVSS VL: DIQMTQSPSSLSASVGDRVTITCRASQDISNYLNWYQQKPGKAPKLLIYSTSRLHSGVPSRFSGSGSGTDYTLTISSLQPEDFATYYCQQGSTLPFTFGQGTKLEIK | 9.82
HM242-C2 (antibody, human IgG1, V domains shown, also called humanized HM242, VH ver.C / VL ver.2) VH: QVQLVQSGPEVKKPGASVKVVCKASGYTFTSYYIQWVKQRPGQGLEWIGWIYPGDGTTKYNEKFKGRVTMTIDKSTRTAYMELRSLRSDDTAVYYCASYYGSYFDYWGQGTLVTVSS VL: DIQMTQSPSSLSASVGDRVTITCRASQDISNYLNWYQQKPDGTVTLLIYYTSKLHSGVPSRFSGSGSGTDYTLTISSLQPEDFATYYCQQSSTLPFTFGQGTKLEIK | > 10.68

(Q) Look up pKd for this binder: HM242-B3 (antibody, human IgG1, V domains shown, also called humanized HM242, VH ver.B / VL ver.3) VH: QVQLVQSGPEVKKPGASVKVVCKASGYTFTSYYIQWVRQVPGQGLEWMGWIYPGDGTTKYNEKFKGKTTLTIDKSTRTAYMELRSLRSDDTAVYYCASYYGSYFDYWGQGTLVTVSS VL: DIQMTQSPSSLSASVGDRVTITCRASQDISNYLNWYQQKPGKAPKLLIYYTSKLHSGVPSRFSGSGSGTDYTLTISSLQPEDFATYYCQQSSTLPFTFGQGTKLEIK
(A) > 10.51
